System under test: P-gp (ABCB1) (Homo sapiens)
Construct: expressed in transfected cells; host or cells: NIH/3T3
Sequence (P08183 whole entry): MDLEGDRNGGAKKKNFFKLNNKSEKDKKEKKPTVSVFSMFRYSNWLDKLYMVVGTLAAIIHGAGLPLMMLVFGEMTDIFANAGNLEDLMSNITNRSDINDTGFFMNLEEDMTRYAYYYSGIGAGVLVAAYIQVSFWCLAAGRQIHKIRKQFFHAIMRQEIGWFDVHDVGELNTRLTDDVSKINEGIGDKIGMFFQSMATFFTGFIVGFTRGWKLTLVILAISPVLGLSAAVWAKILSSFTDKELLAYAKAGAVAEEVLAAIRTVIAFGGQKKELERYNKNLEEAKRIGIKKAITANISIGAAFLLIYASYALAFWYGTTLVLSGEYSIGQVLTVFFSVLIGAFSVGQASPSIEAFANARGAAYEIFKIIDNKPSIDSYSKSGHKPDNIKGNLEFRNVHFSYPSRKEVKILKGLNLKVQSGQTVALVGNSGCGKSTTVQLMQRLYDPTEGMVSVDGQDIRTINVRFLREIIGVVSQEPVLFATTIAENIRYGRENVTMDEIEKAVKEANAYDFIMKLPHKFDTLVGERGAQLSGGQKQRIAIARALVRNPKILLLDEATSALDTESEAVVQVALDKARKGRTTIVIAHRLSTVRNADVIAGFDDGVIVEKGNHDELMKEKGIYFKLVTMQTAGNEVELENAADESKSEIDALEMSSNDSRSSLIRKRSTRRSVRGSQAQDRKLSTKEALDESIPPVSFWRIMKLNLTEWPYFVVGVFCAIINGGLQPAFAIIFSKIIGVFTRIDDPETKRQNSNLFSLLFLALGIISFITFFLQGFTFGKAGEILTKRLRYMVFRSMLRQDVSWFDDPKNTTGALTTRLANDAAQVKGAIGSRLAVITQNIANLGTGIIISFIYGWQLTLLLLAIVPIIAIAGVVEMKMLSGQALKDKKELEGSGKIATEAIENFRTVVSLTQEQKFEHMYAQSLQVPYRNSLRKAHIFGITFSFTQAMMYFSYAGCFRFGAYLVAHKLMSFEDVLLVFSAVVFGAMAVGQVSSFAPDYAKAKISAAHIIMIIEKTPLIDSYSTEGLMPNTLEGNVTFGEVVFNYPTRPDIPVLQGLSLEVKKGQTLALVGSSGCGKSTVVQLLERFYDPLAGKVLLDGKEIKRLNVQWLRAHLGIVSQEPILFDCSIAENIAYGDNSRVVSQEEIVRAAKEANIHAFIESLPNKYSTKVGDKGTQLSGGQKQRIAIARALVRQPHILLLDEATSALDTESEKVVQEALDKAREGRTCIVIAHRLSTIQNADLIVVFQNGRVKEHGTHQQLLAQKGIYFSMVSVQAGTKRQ
Protocol: P-gp-mediated rhodamine 123 efflux inhibition (selectivity assay), ABCB1-transfected NIH/3T3 cells
Format: cell-based
Run parameters: probe rhodamine 123 (R123); [Inhibitor] 10 μM; 0.5 μM R123
Items are presented alongside their recorded inhibition at 30 min, 10 μM.
Report as a plain number; the unit % is understood.

Recorded inhibition at 30 min, 10 μM, per entry:
[[record]]
compound = "COC(=O)[C@H](Cc1c[nH]c2ccccc12)NC(=O)c1cc(=O)c2c(OCc3ccccc3Br)cccc2o1 [5g (series 1)]"
readout_unit = "%"
measured = 5.3

[[record]]
compound = "CC[C@@H](C)[C@H](NC(=O)c1cc(=O)c2c(OCc3ccccc3Br)cccc2o1)C(=O)N[C@H](C(=O)OC)C(C)C [7a (series 2)]"
readout_unit = "%"
measured = 0.2

[[record]]
compound = "COC(=O)[C@H](Cc1c[nH]c2ccccc12)NC(=O)c1cc(=O)c2c(OCc3ccc(Br)cc3)cccc2o1 [5h (series 1)]"
readout_unit = "%"
measured = 6.6


Next, consider the following compound.
Item COC(=O)[C@H](Cc1ccccc1)NC(=O)c1cc(=O)c2c(OCc3ccc(Br)cc3)cccc2o1 [5f (series 1)] was tested on P-gp (ABCB1) (Homo sapiens); the reported inhibition at 30 min, 10 μM is 6.8

* * *

System under test: BCRP/ABCG2 (Homo sapiens)
Sequence (Q9UNQ0 whole entry): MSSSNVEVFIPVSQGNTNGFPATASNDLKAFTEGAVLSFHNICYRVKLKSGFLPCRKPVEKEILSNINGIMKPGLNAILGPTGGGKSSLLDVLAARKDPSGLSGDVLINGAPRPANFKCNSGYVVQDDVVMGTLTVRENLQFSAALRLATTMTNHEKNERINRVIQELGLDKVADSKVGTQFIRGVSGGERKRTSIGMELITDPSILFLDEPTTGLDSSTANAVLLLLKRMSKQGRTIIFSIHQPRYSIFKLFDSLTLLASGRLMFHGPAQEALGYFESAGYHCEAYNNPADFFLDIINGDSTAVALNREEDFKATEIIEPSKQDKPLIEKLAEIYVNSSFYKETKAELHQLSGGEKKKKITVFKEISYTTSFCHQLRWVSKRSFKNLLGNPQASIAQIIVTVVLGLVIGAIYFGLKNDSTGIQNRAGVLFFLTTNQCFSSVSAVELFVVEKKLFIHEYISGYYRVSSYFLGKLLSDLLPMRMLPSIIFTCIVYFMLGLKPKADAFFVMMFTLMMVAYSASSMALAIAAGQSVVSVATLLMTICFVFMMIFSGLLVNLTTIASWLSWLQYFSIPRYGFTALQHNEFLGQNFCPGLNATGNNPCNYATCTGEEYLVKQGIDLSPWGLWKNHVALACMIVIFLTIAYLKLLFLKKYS
Protocol: BCRP-mediated mitoxantrone efflux inhibition, ABCG2-transfected HEK293 cells, flow cytometry
Run parameters: human, probe mitoxantrone (MX), 4 μM
Overview of reported inhibition at 30 min, 1 μM across a group of compounds:
Give just the numeric value; % need not be written.

These recorded examples may help you get a feel for the data.
[[record]]
compound = "CCC(C)[C@H](NC(=O)c1cc(=O)c2c(OCc3ccccc3Br)cccc2o1)C(=O)O (some centres unmarked) [6a (series 1)]"
measured = 0

[[record]]
compound = "COC(=O)[C@@H](Cc1c[nH]c2ccccc12)NC(=O)c1cc(=O)c2c(OCc3ccc(Br)cc3)cccc2o1 [5i (series 1)]"
measured = 85


So, CCC(C)[C@H](NC(=O)c1cc(=O)c2c(OCc3ccccc3Br)cccc2o1)C(=O)OC (some centres unmarked) [5a (series 1)] ? Its inhibition at 30 min, 1 μM was 78

get_value(item= COC(=O)[C@@H](NC(=O)c1cc(=O)c2c(OCc3ccccc3Br)cccc2o1)C(C)C [5d (series 1)] , readout=inhibition at 30 min, 1 μM) returns 87

Note to self: inhibition at 30 min, 1 μM recorded for O=C(N[C@H](Cc1c[nH]c2ccccc12)C(=O)O)c1cc(=O)c2c(OCc3ccc(Br)cc3)cccc2o1 [6e (series 1)] was 6.1

* * *

System under test: P-gp (ABCB1) (Homo sapiens)
Construct: expressed in transfected cells; host or cells: NIH/3T3
Protocol: P-gp-mediated rhodamine 123 efflux inhibition (selectivity assay), ABCB1-transfected NIH/3T3 cells
Type: cell-based
Run parameters: probe rhodamine 123 (R123); [Inhibitor] 10 μM; 0.5 μM R123
Reported metric: inhibition at 30 min, 10 μM (%)
Enter your answer as a number in %; do not include the unit.

[[record]]
compound = "COC(=O)[C@@H](Cc1c[nH]c2ccccc12)NC(=O)c1cc(=O)c2c(OCc3ccc(Br)cc3)cccc2o1 [5i (series 1)]"
system_under_test = "P-gp (ABCB1) (Homo sapiens)"
measured = 6.1

[[record]]
compound = "CC[C@@H](C)[C@H](NC(=O)c1cc(=O)c2c(OCc3ccc(Br)cc3)cccc2o1)C(=O)N[C@H](C(=O)OC)C(C)C [7c (series 2)]"
system_under_test = "P-gp (ABCB1) (Homo sapiens)"
measured = 10.6

[[record]]
compound = "CC[C@@H](C)[C@H](NC(=O)c1cc(=O)c2c(OCc3ccc(Br)cc3)cccc2o1)C(=O)N[C@@H](CC(C)C)C(=O)OC [7d (series 2)]"
system_under_test = "P-gp (ABCB1) (Homo sapiens)"
measured = 5.9


Please examine the following record next.
Record CC[C@@H](C)[C@H](NC(=O)c1cc(=O)c2c(OCc3ccc(Br)cc3)cccc2o1)C(=O)O [6b (series 1)] . Reported inhibition at 30 min, 10 μM: 7.1

* * *

System under test: BCRP/ABCG2 (Homo sapiens)
Protocol: BCRP-mediated mitoxantrone efflux inhibition, ABCG2-transfected HEK293 cells, flow cytometry
Run parameters: human, probe mitoxantrone (MX), 4 μM
Reported metric: inhibition at 30 min, 10 μM (%)
Number in %, nothing else.

Examples with their reported inhibition at 30 min, 10 μM follow.
[[record]]
molecule = "COC(=O)[C@H](Cc1c[nH]c2ccccc12)NC(=O)c1cc(=O)c2c(OCc3ccccc3Br)cccc2o1 [5g (series 1)]"
system_under_test = "BCRP/ABCG2 (Homo sapiens)"
reported_metric = "inhibition at 30 min, 10 μM"
measured = 39.7

[[record]]
molecule = "O=C(N[C@H](Cc1c[nH]c2ccccc12)C(=O)O)c1cc(=O)c2c(OCc3ccc(Br)cc3)cccc2o1 [6e (series 1)]"
system_under_test = "BCRP/ABCG2 (Homo sapiens)"
reported_metric = "inhibition at 30 min, 10 μM"
measured = 11.2

[[record]]
molecule = "COC(=O)[C@H](Cc1c[nH]c2ccccc12)NC(=O)c1cc(=O)c2c(OCc3ccc(Br)cc3)cccc2o1 [5h (series 1)]"
system_under_test = "BCRP/ABCG2 (Homo sapiens)"
reported_metric = "inhibition at 30 min, 10 μM"
measured = 87.7

[[record]]
molecule = "CCC(C)[C@H](NC(=O)c1cc(=O)c2c(OCc3ccccc3Br)cccc2o1)C(=O)O (stereo partly drawn) [6a (series 1)]"
system_under_test = "BCRP/ABCG2 (Homo sapiens)"
reported_metric = "inhibition at 30 min, 10 μM"
measured = 1.6

[[record]]
molecule = "COC(=O)[C@@H](NC(=O)c1cc(=O)c2c(OCc3ccccc3Br)cccc2o1)C(C)C [5d (series 1)]"
system_under_test = "BCRP/ABCG2 (Homo sapiens)"
reported_metric = "inhibition at 30 min, 10 μM"
measured = 148


Tested system BCRP/ABCG2 (Homo sapiens); inhibition at 30 min, 10 μM recorded for CCC(C)[C@H](NC(=O)c1cc(=O)c2c(OCc3ccccc3Br)cccc2o1)C(=O)OC (stereo partly drawn) [5a (series 1)] was 143

* * *

System under test: MRP1 (ABCC1) (Homo sapiens, UniProt P33527)
Construct: expressed in transfected cells; host or cells: Flp-In 293
Sequence (P33527 whole entry): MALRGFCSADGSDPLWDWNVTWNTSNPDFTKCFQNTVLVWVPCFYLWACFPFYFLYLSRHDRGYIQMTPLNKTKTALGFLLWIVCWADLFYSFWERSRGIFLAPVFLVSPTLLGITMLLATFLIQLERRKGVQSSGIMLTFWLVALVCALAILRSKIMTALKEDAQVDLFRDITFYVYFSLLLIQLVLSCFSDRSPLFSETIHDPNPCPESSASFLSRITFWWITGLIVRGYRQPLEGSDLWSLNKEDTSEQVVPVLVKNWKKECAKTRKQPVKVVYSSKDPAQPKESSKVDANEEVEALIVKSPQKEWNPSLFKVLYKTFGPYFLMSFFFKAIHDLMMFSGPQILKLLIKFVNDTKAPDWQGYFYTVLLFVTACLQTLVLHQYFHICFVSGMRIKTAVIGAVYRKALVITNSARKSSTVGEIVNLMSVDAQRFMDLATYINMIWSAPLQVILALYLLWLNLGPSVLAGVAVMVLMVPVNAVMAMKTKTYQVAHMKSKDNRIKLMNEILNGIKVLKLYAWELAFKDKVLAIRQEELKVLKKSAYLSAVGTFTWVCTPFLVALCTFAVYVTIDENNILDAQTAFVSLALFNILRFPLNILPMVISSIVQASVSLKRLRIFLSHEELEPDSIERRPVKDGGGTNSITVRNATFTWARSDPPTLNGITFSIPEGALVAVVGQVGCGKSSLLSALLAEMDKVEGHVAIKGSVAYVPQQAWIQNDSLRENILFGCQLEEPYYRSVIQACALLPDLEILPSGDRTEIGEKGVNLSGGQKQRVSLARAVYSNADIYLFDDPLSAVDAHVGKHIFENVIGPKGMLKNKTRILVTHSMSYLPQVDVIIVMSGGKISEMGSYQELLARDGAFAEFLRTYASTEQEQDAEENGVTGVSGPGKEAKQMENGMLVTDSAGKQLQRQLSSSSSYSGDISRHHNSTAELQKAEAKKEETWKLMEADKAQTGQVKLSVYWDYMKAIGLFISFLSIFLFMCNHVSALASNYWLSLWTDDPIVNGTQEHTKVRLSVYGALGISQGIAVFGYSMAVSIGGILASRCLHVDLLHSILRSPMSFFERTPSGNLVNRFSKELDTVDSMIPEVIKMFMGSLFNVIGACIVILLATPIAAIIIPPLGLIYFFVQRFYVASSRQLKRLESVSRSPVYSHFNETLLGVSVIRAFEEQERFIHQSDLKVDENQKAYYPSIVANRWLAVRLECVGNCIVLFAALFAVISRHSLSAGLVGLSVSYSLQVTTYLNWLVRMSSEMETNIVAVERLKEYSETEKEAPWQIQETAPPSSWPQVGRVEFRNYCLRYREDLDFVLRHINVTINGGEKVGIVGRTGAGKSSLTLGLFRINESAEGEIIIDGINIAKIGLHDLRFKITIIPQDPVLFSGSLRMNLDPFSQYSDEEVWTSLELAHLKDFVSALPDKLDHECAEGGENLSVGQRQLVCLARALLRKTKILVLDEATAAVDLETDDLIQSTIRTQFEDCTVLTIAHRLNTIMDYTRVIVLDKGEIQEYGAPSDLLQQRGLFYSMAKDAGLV
Protocol: MRP1-mediated calcein-AM efflux inhibition (selectivity assay), ABCC1-transfected Flp-In 293 cells
Assay type: cell-based
Run parameters: probe calcein-AM (cAM), [Inhibitor] 10 μM, 0.2 μM cAM
Reported metric: inhibition at 30 min, 10 μM
Number first, unit second: that is the form wanted.

Worked cases, inhibition at 30 min, 10 μM given:
[[record]]
compound = "COC(=O)[C@H](CC(C)C)NC(=O)c1cc(=O)c2c(OCc3ccccc3Br)cccc2o1 [5c (series 1)]"
measured = "19.2%"

[[record]]
compound = "COC(=O)[C@H](Cc1c[nH]c2ccccc12)NC(=O)c1cc(=O)c2c(OCc3ccccc3Br)cccc2o1 [5g (series 1)]"
measured = "16%"

[[record]]
compound = "COC(=O)[C@@H](Cc1c[nH]c2ccccc12)NC(=O)c1cc(=O)c2c(OCc3ccc(Br)cc3)cccc2o1 [5i (series 1)]"
measured = "12.6%"

[[record]]
compound = "CCC(C)[C@H](NC(=O)c1cc(=O)c2c(OCc3ccccc3Br)cccc2o1)C(=O)O (stereo partly shown) [6a (series 1)]"
measured = "13.1%"

[[record]]
compound = "COC(=O)[C@H](Cc1c[nH]c2ccccc12)NC(=O)c1cc(=O)c2c(OCc3ccc(Br)cc3)cccc2o1 [5h (series 1)]"
measured = "17.4%"


Record CC[C@@H](C)[C@H](NC(=O)c1cc(=O)c2c(OCc3ccccc3Br)cccc2o1)C(=O)N[C@H](C(=O)OC)C(C)C [7a (series 2)] , field inhibition at 30 min, 10 μM: 10.8%

compound CC[C@@H](C)[C@H](NC(=O)c1cc(=O)c2c(OCc3ccc(Br)cc3)cccc2o1)C(=O)N[C@H](C(=O)OC)C(C)C [7c (series 2)] , inhibition at 30 min, 10 μM observed: 15.3%

* * *

System under test: P-gp (ABCB1) (Homo sapiens)
Construct: expressed in transfected cells; host or cells: NIH/3T3
Protocol: P-gp-mediated rhodamine 123 efflux inhibition (selectivity assay), ABCB1-transfected NIH/3T3 cells
Type: cell-based
Run parameters: probe rhodamine 123 (R123); [Inhibitor] 10 μM; 0.5 μM R123
Reported metric: inhibition at 30 min, 10 μM (%)
Could you give me the number in %? Just the number is fine.

[[record]]
compound = "CC[C@@H](C)[C@H](NC(=O)c1cc(=O)c2c(OCc3ccccc3Br)cccc2o1)C(=O)N[C@@H](CC(C)C)C(=O)OC [7b (series 2)]"
readout_unit = "%"
measured = 2.4

[[record]]
compound = "COC(=O)[C@H](CC(C)C)NC(=O)c1cc(=O)c2c(OCc3ccccc3Br)cccc2o1 [5c (series 1)]"
readout_unit = "%"
measured = 4.8

[[record]]
compound = "CCC(C)[C@H](NC(=O)c1cc(=O)c2c(OCc3ccccc3Br)cccc2o1)C(=O)O (stereo partly shown) [6a (series 1)]"
readout_unit = "%"
measured = 7.9


Given item COC(=O)[C@@H](NC(=O)c1cc(=O)c2c(OCc3ccccc3Br)cccc2o1)C(C)C [5d (series 1)] , the value recorded as its inhibition at 30 min, 10 μM is 6.5
